Test system: NCI-H522 lung
experiment-summary: NCI tumour cell line growth inhibition, 48 h
value-kind: TGI (µM)
Answers are plain numbers, in µM.

Consider the reported TGI for these compounds:
Notebook: Cc1ccccc1-n1c(=O)nc2n(-c3ccc(C(C)(C)C)cc3)c3ccccc3cc-2c1=O , TGI read as 47.6

Notebook: COc1ccc(/C(=N/O)c2cc(F)c(F)c(OC)c2F)cc1O , TGI read as 3.3

Notebook: O=C(N/N=C/c1cc(Cl)cc(Cl)c1[O-])c1ccccc1O.O=C(N/N=C/c1cc(Cl)cc(Cl)c1[O-])c1ccccc1O.[Mn+2] , TGI read as 0.737

Notebook: COc1ccc(/C=C2\CC3C4CC=C5C[C@@H](N6CCCC6)CC[C@]5(C)C4CC[C@]3(C)[C@H]2O)cc1OC (some centres undefined) , TGI read as 16

Okay, now this compound:
Notebook: C=C1C(=O)OC2/C=C(CO)/C=C\C3OC3(C)CC(OC(=O)/C(C)=C/COC(C)=O)C12 (centres undefined) , TGI read as 1.81
